Could you please report measured T/C for the items listed next?
- Tested on: L1210 leukemia ip in BDF1 mice, survival T/C
- assay-comment: NCI In Vivo Anticancer Drug Screen. Data for tumor model L1210 Leukemia (intraperitoneal) in B6D2F1 (BDF1) mice
- condition-description: endpoint: mean survival time; dose: 100.0 mg/kg/injection; schedule: Q01DX009 (ip); vehicle: Klucel (hydroxypropylcellulose) (HPC); higher = longer survival
Inconclusive results and toxic doses are left out.

1. COc1ccc(N=C(N)NC#N)cc1: 100 % of control
2. COc1cccc(N=Cc2ccc(OC(=O)c3ccccc3)c(OC)c2)c1: 91 % of control
3. O=c1oc(-c2cccc(Cl)c2)nc2cc(Cl)ccc12: 104 % of control

Hi team, please reply with T/C for each item in this list.
1. Cc1nnc(NC(=O)C(Cl)Cl)s1
2. COc1ccccc1N1CCN(CCc2c[nH]c3cc4c(cc23)OCO4)CC1
3. CCOC(=O)C(CCC(=O)O)NC(=O)OCc1ccccc1 (stereo unspecified)

Result:
["96 % of control", "112 % of control", "101 % of control"]

###

Could you please report measured T/C for the items listed next?
- Test system: L1210 leukemia ip in BDF1 mice, survival T/C
- assay-comment: NCI In Vivo Anticancer Drug Screen. Data for tumor model L1210 Leukemia (intraperitoneal) in B6D2F1 (BDF1) mice
- condition-description: endpoint: mean survival time; dose: 75.0 mg/kg/injection; schedule: Q01DX001 (ip); vehicle: other; higher = longer survival
Toxic doses and inconclusive results are not listed.

Illustrative cases are given below, each with its answer.
1) CCC/C=C(\C)C(C)(C#N)C(=O)OCC (centres undefined): 112 % of control
2) CCC(CC)NNC(CC)CC: 105 % of control
3) CC(C)CC(CC(C)C)NCC(C)OC(=O)c1ccc(N(C)C)cc1 (centres undefined): 101 % of control

Let's switch to this molecule now.
Ask: Hi! What's the reported T/C for Cc1cc(C)cc(C(O)(C(=O)O)c2ccccc2)c1 (centres undefined) on L1210 leukemia ip in BDF1 mice, survival T/C?
Result: 103 % of control

###

- Test system: L1210 leukemia ip in BDF1 mice, survival T/C
- assay-comment: NCI In Vivo Anticancer Drug Screen. Data for tumor model L1210 Leukemia (intraperitoneal) in B6D2F1 (BDF1) mice
- condition-description: endpoint: mean survival time; dose: 100.0 mg/kg/injection; schedule: Q01DX001 (ip); vehicle: other; higher = longer survival
Inconclusive results and toxic doses are left out.
Could you please report measured T/C for the items listed next?

Illustrative cases are given below, each with its answer.
1. CCOC(=O)CN=NNc1ccc(C(=O)OCC)cc1: 98 % of control
2. C[n+]1c(I)ccc2ccccc21: 105 % of control
3. CCCCn1c(=O)cc(C)c2ccccc21: 95 % of control

Hi team, please reply with T/C for each item in this list.
1. COc1cccc2cc(C3(c4ccccc4)OC(=O)c4ccccc43)ccc12 (configuration not stated)
2. Nc1ccc(N=Nc2cc(Cl)ccc2Cl)c(N)n1
3. O=C1C(Cl)=C(c2ccccc2)C(=O)C(Cl)=C1c1ccccc1
4. CN1C(=O)C2C=C(Cl)C1c1ccccc12 (configuration not stated)

Result:
1. 90 % of control
2. 86 % of control
3. 93 % of control
4. 102 % of control

###

- Test system: L1210 leukemia ip in BDF1 mice, survival T/C
- assay-comment: NCI In Vivo Anticancer Drug Screen. Data for tumor model L1210 Leukemia (intraperitoneal) in B6D2F1 (BDF1) mice
- condition-description: endpoint: mean survival time; dose: 400.0 mg/kg/injection; schedule: Q01DX009 (ip); vehicle: Klucel (hydroxypropylcellulose) (HPC); higher = longer survival
Toxic doses and inconclusive results are not listed.
Could you please report measured T/C for the items listed next?

Illustrative cases are given below, each with its answer.
1) O=C(O)C1CC2CCC1CC2 (configuration not stated): 92 % of control
2) COc1ccc(NC(=O)c2cccc([N+](=O)[O-])c2)cc1: 96 % of control
3) CCc1ccccc1NC(=O)Nc1ccccc1: 105 % of control
4) CCCCOc1ccc(OC(=O)Nc2ccc(C(=O)OCC)cc2)cc1: 97 % of control
5) S=C1NC2(CCCCC2)NC12CCCCC2: 93 % of control

Hi team, please reply with T/C for each item in this list.
1. CC(C)C1CCC(C(=O)O)CC1 (configuration not stated)
2. COc1ccc(/C=C2\N=C(c3ccc([N+](=O)[O-])cc3)OC2=O)cc1OC
3. COc1ccc(CCNC(=S)NC(=O)c2ccc(Cl)c(Cl)c2)cc1OC
4. Cc1ccc(Cl)cc1NC(=O)C(Br)C(Br)c1ccccc1 (configuration not stated)
5. CSc1cccc(N2C(=O)CC(Sc3ccccc3N)C2=O)c1 (configuration not stated)

Result:
97 % of control
101 % of control
93 % of control
104 % of control
98 % of control

Hi team, please reply with T/C for each item in this list.
1. ClC(Cl)(Cl)C(c1cccs1)c1cccs1
2. CCOC(=O)c1ccc(NC(=O)C2CC2)cc1

Result:
["94 % of control", "104 % of control"]

###

- System: L1210 leukemia ip in BDF1 mice, survival T/C
- assay-comment: NCI In Vivo Anticancer Drug Screen. Data for tumor model L1210 Leukemia (intraperitoneal) in B6D2F1 (BDF1) mice
- condition-description: endpoint: mean survival time; dose: 400.0 mg/kg/injection; schedule: Q01DX009 (ip); vehicle: gum acacia; higher = longer survival
Toxic doses and inconclusive results are not listed.
Could you please report measured T/C for the items listed next?

Illustrative cases are given below, each with its answer.
1) Cc1cccc(NC(=O)Nc2ccc(Cl)cc2)c1C: 92 % of control
2) CN(C)c1ccc(/C=N/Nc2c([N+](=O)[O-])cc(C(F)(F)F)cc2[N+](=O)[O-])cc1: 88 % of control
3) O=[N+]([O-])c1ccc(O)c(C2CCCCC2)c1: 86 % of control
4) O=C(Nc1cccc(C(F)(F)F)c1)Nc1ccccc1C(F)(F)F: 104 % of control

Ask: Which measured T/C value corresponds to `O=[N+]([O-])c1ccc(N/N=C(\Cc2ccccc2)CC(O)(C(F)(F)F)C(F)(F)F)c([N+](=O)[O-])c1` ?
Result: 93 % of control

###

- Test system: L1210 leukemia ip in BDF1 mice, survival T/C
- assay-comment: NCI In Vivo Anticancer Drug Screen. Data for tumor model L1210 Leukemia (intraperitoneal) in B6D2F1 (BDF1) mice
- condition-description: endpoint: mean survival time; dose: 75.0 mg/kg/injection; schedule: Q01DX001 (ip); vehicle: saline; higher = longer survival
Inconclusive results and toxic doses are left out.
Could you please report measured T/C for the items listed next?

1) C[n+]1ccccc1/C=C/c1ccc(O)c(O)c1: 96 % of control
2) CCCCCCC(CC)NCCO (stereo not drawn): 96 % of control
3) O=C1Nc2ccccc2C12CNCS2 (stereo not drawn): 104 % of control
4) O=S1(=O)CC(N2CCCCC2)C1CN1CCCCC1 (stereo not drawn): 97 % of control
5) COc1cc(O)c(/C=N\N=C\c2ccco2)c(OC)c1: 90 % of control

Hi team, please reply with T/C for each item in this list.
1. C=C(C)C1(CCCC)C(=O)NC(=S)NC1=O
2. CCCN(CCC)CC(O)c1ccc2cccc3c2c1CC3 (stereo not drawn)
3. CCC(=O)N/N=C/C=N/NC(=O)c1ccncc1
4. O=C(/C=C/c1ccccc1)OC(C(=O)O)c1ccccc1 (stereo not drawn)
5. Cc1ccnc(NS(=O)(=O)c2ccc(N=NC3SC(=S)NC3=O)cc2)n1 (stereo not drawn)
6. O=C1Nc2ccc(Cl)cc2C1=O
7. CCC1(c2ccccc2)C(=O)NC(=O)NC1=O
8. C=C=CCCCC

Result:
1: 102 % of control; 2: 104 % of control; 3: 96 % of control; 4: 105 % of control; 5: 100 % of control; 6: 90 % of control; 7: 105 % of control; 8: 101 % of control

###

Could you please report measured T/C for the items listed next?
- System: L1210 leukemia ip in BDF1 mice, survival T/C
- assay-comment: NCI In Vivo Anticancer Drug Screen. Data for tumor model L1210 Leukemia (intraperitoneal) in B6D2F1 (BDF1) mice
- condition-description: endpoint: mean survival time; dose: 50.0 mg/kg/injection; schedule: Q04DX002 (ip); vehicle: saline with Tween-80; higher = longer survival
Toxic doses and inconclusive results are not listed.

Illustrative cases are given below, each with its answer.
1) O=C(O)CCC1CCC(=O)C1 (stereo not given): 102 % of control
2) C=C(C)C1CCC2(CO)CCC3(C)C(CCC4C5(C)CCC(OC6CCCCO6)C(C)(C)C5CCC43C)C12 (stereo not given): 93 % of control
3) NC(=O)C(O)C(O)C(O)C(O)CCl (stereo not given): 96 % of control
4) CC(=O)NCC(O)C(O)C(O)C(/C=N/Nc1ccccc1)=N/Nc1ccccc1 (stereo not given): 88 % of control

Let's switch to this compound now.
Ask: Hi! What's the reported T/C for `O=c1[nH]c(-c2ccccc2N=NN2CCCCC2)nc2ccccc12` on L1210 leukemia ip in BDF1 mice, survival T/C?
Result: 103 % of control
